Biological target: T1, FcRn-p3 fusion protein (human, UniProt P55899 24-297; P61769 21-119)
T1 construct: baculovirus expressed; coated on ELISA wells; not shown: amino terminal part of bacteriophage p3 protein and CVDE protein
T1 sequence (P55899 24-297, chain 1 of 2): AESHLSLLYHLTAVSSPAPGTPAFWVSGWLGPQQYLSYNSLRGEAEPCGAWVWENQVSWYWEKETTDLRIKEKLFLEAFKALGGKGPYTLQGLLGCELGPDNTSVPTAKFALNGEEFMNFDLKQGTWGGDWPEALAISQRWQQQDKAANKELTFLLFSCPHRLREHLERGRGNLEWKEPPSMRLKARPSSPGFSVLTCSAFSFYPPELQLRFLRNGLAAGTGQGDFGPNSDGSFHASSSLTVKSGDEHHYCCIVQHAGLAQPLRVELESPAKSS
T1 sequence (P61769 21-119, chain 2 of 2): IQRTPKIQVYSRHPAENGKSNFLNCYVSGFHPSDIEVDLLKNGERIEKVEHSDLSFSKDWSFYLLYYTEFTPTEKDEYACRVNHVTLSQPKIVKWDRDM
Experiment: phage ELISA pH6 (est.)
measured.parameter: Ratio/FWT (fold)
Report the value in fold with no unit label.

Request: Reported Ratio/FWT, binder T5A_05 (other, EU numbering) CPPCPAPELLGGPSVFLFPPKPKDTLMISRTPEVTCVVEDVSHGDPEVKFNWYVDGVEVHNAKTKPREEQYNSTYRVVSVLTVLHQDWLNGKEYKCKVSNKALPAPIEKTISKAKGQPREPQVYTLPPSRDELTKNQVSLTCLVKGFYPSDIVVEWESNGQPENNYKTTPPVLDSDGSFFLYSKLTVDKSRWQQGTVFSCSVMHEALHSHYTQKSLSLSPGK : ____
Result: 8.8

Request: Try this binder too: C4A_06 (other, EU numbering) CPPCTAPELLGGPSVFLFPPKPKDTLMISRTPEVTCVVVDVSHEDPEVKFNWYVDGVEVHNAKTKPREEQYNSTYRVVSVLTVLHQDWLDGKEYKCKVSNKALPVPIEKTISKAKGQPREPQVYTLPPSRDELTKNQVSLTCLVKGFYPSDIAVEWESNGQPENNYKTTPPVLDSDGSFFLYSKLTVDKSRWQQGNVFSCSVMHEALHYHYTQKSLSLSPGK
Result: 11.4

Request: Try this binder too: C3A_24 (other, EU numbering) CPPCPAPELLGGPSVFLFPPKPKDTLMISRTPEVTCVVVDVSHEDPEVKFNWYVDGVEVHNAKTKPREEQYNSTYRVVSVLPVLHQDWLNGKEYKCKVSNKALPAPIEKTISKAKGQPREPQVYTLPPSRDELTKNQVSLTCLVKGFYPSDIAVEWESNGQPETNYKTTPPVLDSGGSFFLYSKLTVDKSRWQQGTVFSCSVMHEALHYHYTQKSLSLSPGK
Result: 9.2

Source: patent USRE46585
